# Target Or Test System: Adrenergic receptor alpha-2 (Rattus norvegicus, UniProt P22086+P19328+P22909)
# Assay Protocol: Displacement of [3H]clonidine from Alpha-2 adrenergic receptor of rat brain membranes
# Assay type: cell membranes, Membrane
Measured Metric: Ki (nM)
Your answer is read as nM, so omit the unit and give the number.

Sample records with Ki:
> print(dat)
                                   compound  unit.symbol  reported.value
1           C[C@H](N)[C@H](O)c1ccc(O)c(O)c1           nM             7.7
2  COc1cccc(OC)c1OCCNCC1COc2ccccc2O1 (centres undefined)           nM             200
3               c1cc2c(c(NC3=NCCN3)c1)CCCC2           nM             4.2

Req: For the compound shown here, c1ccc(CC2=NCCN2)cc1 , give the reported Ki.
Resp: 180
